Cited source: PubChem BioAssay AID1159580

normalized growth reference
TEST_PROTOCOL: chemical genetic growth profiling, strain panel (AID 1159580);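 also: tested at 20 µM; growth read once vehicle control cultures reached saturation at 30 °C; 1 = growth at the plate median or of vehicle wells; lower values mean less growth of the strain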
STATED_CONDITIONS: S. cerevisiae deletion strains, growth OD, locus YDL005C, strain med2, stronger effect = lower value
Screen size: about 5,500 compounds; about 2,000 (36%) were called active. About 18% were inconclusive and are not listed. This is one part of the list.

Dear colleague, I am looking for the recorded normalized growth of the following compound: Cc1cc(O)c2c(c1O)C(=O)c1c(O)cc(C)c(O)c1C2=O
0.971 (inactive)

Please answer likewise for CC1(C)C=Cc2c(cc3occ(-c4ccc5c(c4)OCO5)c(=O)c3c2O)O1
0.998 (inactive)

Cool, now NCCS
0.981 (inactive)

Would you mind doing COc1cc2c(cc1-c1coc3c4c(c(OC)cc3c1=O)OC(C)(C)C=C4)OCO2 as well?
1.04 (inactive)

Would you mind doing Cc1c(N(C)CS(=O)(=O)O)c(=O)n(-c2ccccc2)n1C as well?
1.01 (inactive)

// same read-out, input: COc1c2c(cc3occ(-c4ccc5c(c4)OCO5)c(=O)c13)OC(C)(C)C=C2
1 (inactive)

Field entry: COc1ccc2c(=O)c(-c3cc4c(cc3OC)OCO4)coc2c1
1.01 (inactive)

Now this one: O=c1c(-c2ccc3c(c2)OCO3)coc2cc(O)ccc12
0.984 (inactive)

Also O=C1c2ccc(O)c(O)c2C(=O)c2c(O)ccc(O)c21 , if possible.
0.879 (active)

Param item: CN1Cc2c(N)cccc2C(c2ccccc2)C1 (configuration not stated)
1 (inactive)

Also Cn1cnc([N+](=O)[O-])c1Sc1ncnc2nc[nH]c12 , if possible.
1.01 (inactive)

Item: CCS(=O)(=O)CCn1c([N+](=O)[O-])cnc1C
1.01 (inactive)
